- Protocol details: Coupling of water and castor oil by hydrotropes
- Type: physicochemical
- Condition details: ratio of water to castor oil 50:50
Property: Wt % Castor oil (at compatibilization) (%)

compound="COCC(C)O (centres unmarked)" property="Wt % Castor oil (at compatibilization)" unit=% value_observed=12
compound="CC1COC(C)(CCCO)O1 (centres unmarked)" property="Wt % Castor oil (at compatibilization)" unit=% value_observed=11
compound=CCO property="Wt % Castor oil (at compatibilization)" unit=% value_observed=10

I: CCOC(=O)CCC1(C)OCC(CO)O1 (centres unmarked)
II: COC(C)COC(C)CO (centres unmarked)
(Q) Lab log: flag the item ( I or II ) with the smaller Wt % Castor oil (at compatibilization) figure. Lab log: write the label of the selected item as the result.
(A) I
(I: 9%, II: 13%)

---

- Protocol details: Coupling of water and castor oil by hydrotropes
- Format: physicochemical
- Condition details: ratio of water to castor oil 30:70
Property: Wt % Castor oil (at compatibilization) (%)

compound="COC(C)COC(C)CO (centres unmarked) [DPM, dipropylene glycol methyl ether]" property="Wt % Castor oil (at compatibilization)" unit=% value_observed=26
compound="CCOC(=O)CCC1(C)OCC(CO)O1 (centres unmarked) [EtLGK, glycerol ketal of ethyl levulinic acid]" property="Wt % Castor oil (at compatibilization)" unit=% value_observed=17
compound="CC1COC(C)(CCCO)O1 (centres unmarked) [Ketal alcohol (1a)]" property="Wt % Castor oil (at compatibilization)" unit=% value_observed=21
compound="COCC(C)O (centres unmarked) [PM, propylene glycol methyl ether]" property="Wt % Castor oil (at compatibilization)" unit=% value_observed=26
compound="CCO [ethanol]" property="Wt % Castor oil (at compatibilization)" unit=% value_observed=22

---

- Protocol details: Coupling of water and castor oil by hydrotropes
- Format: physicochemical
- Condition details: ratio of water to castor oil 30:70
Property: Wt % Hydrotrope required to compatibilize phases (%)

compound="COC(C)COC(C)CO (centres unmarked)" unit=% value_observed=65
compound="CC1COC(C)(CCCO)O1 (centres unmarked)" unit=% value_observed=71
compound=CCO unit=% value_observed=69
compound="COCC(C)O (centres unmarked)" unit=% value_observed=65
compound="CCOC(=O)CCC1(C)OCC(CO)O1 (centres unmarked)" unit=% value_observed=76

---

- Protocol details: Coupling of water and octanoic acid by hydrotropes (amount producing a single phase)
- Type: physicochemical
- Condition details: ratio of water:octanoic acid 70:30
Property: Wt % Octanoic Acid (resulting, at compatibilization) (%)

Recorded Wt % Octanoic Acid (resulting, at compatibilization), per entry:
molecule=CCO value_observed=19
molecule="CC1COC(C)(CCCO)O1 (stereo not drawn)" value_observed=14

1: COCC(C)O (stereo not drawn)
2: CCOC(=O)CCC1(C)OCC(CO)O1 (stereo not drawn)
(Q) Which of the two items, 1 and 2 , has the greater recorded Wt % Octanoic Acid (resulting, at compatibilization)? Give the label under which the chosen entry appears.
(A) 1
(1: 17%, 2: 10%)

---

- Protocol details: Coupling of water and castor oil by hydrotropes
- Format: physicochemical
- Condition details: ratio of water to castor oil 10:90
Property: Wt % Hydrotrope required to compatibilize phases (%)

compound="COC(C)COC(C)CO (centres unmarked)" value_observed=56
compound=CCO value_observed=55
compound="CCOC(=O)CCC1(C)OCC(CO)O1 (centres unmarked)" value_observed=61
compound="COCC(C)O (centres unmarked)" value_observed=61
compound="CC1COC(C)(CCCO)O1 (centres unmarked)" value_observed=64

---

- Protocol details: Coupling of water and octanoic acid by hydrotropes (amount producing a single phase)
- Type: physicochemical
- Condition details: ratio of water:octanoic acid 30:70
- Description: Hydrotropes were added to a two-component mixture of octanoic acid and deionized (DI) water to find the amount that produced a single phase from the two separate phases of water and octanoic acid. The percent hydrotrope required to compatibilize phases (and the resulting percent octanoic acid) were calculated and the results are shown in Table 4 as well as FIG. 1.
Property: Wt % Hydrotrope required to compatibilize phases (%)

molecule=CCCCOCCO value_observed=52

I: COCC(C)O (stereo not drawn)
II: CCOC(=O)CCC1(C)OCC(CO)O1 (stereo not drawn)
(Q) Kindly identify which of I and II has the larger recorded Wt % Hydrotrope required to compatibilize phases value. Choose, then provide that item's label.
(A) II
(II: 59%, I: 38%)

---

- Protocol details: Coupling of water and octanoic acid by hydrotropes (amount producing a single phase)
- Format: physicochemical
- Condition details: ratio of water:octanoic acid 50:50
Property: Wt % Hydrotrope required to compatibilize phases (%)

compound="CCCCOCCO [2-butoxyethanol]" value_observed=57
compound="COC(C)COC(C)CO (stereo not drawn) [DPM, dipropylene glycol methyl ether]" value_observed=51
compound="CCO [ethanol]" value_observed=39

---

- Protocol details: Coupling of water and octanoic acid by hydrotropes (amount producing a single phase)
- Type: physicochemical
- Condition details: water:octanoic acid 50:50 (DI water 5.0 g, octanoic acid 5.0 g)
Property: Amount of hydrotrope that produced a single phase (grams)

compound=CCCCOCCO value_observed=6.74

A: CC1COC(C)(CCCO)O1 (stereo not shown)
B: CCO
C: CCOC(=O)CCC1(C)OCC(CO)O1 (stereo not shown)
(Q) // smallest Amount of hydrotrope that produced a single phase at index 0, largest at the end Reply with the item labels sorted in the order that was asked for.
(A) B, A, C
